Provide the recorded pIC50 for the entries that follow.
System: HL-60
Measurement Notes: Antiproliferative activity against human HL60 cells after 72 hrs by XTT assay
Assay type: functional, cell-based
Settings: HL-60, 72 h
One number for each entry, as −log10 of the molar value.

Previously resolved entries follow.
INSERT INTO results (structure, target_desc, result_number) VALUES
  ('Cc1ncnc2c1c(-c1ccsc1)cn2[C@@H]1O[C@H](CO)[C@@H](O)[C@H]1O', 'HL-60', 6.46),
  ('O=c1[nH]cnc2c1c(-c1ccsc1)cn2[C@@H]1O[C@H](CO)[C@@H](O)[C@H]1O', 'HL-60', 4.92),
  ('C#Cc1cn([C@@H]2O[C@H](CO)[C@@H](O)[C@H]2O)c2ncnc(NC)c12', 'HL-60', 5.04);

Could you now look at the following compound, please?
Q. // fetch pIC50 given entry C#Cc1cn([C@@H]2O[C@H](CO)[C@@H](O)[C@H]2O)c2ncnc(C)c12
A. 5.95
